Source of measurements: ChEMBL document CHEMBL5120857

Target: Protein mono-ADP-ribosyltransferase PARP10 (Homo sapiens, UniProt Q53GL7)
Sequence (Q53GL7 whole entry): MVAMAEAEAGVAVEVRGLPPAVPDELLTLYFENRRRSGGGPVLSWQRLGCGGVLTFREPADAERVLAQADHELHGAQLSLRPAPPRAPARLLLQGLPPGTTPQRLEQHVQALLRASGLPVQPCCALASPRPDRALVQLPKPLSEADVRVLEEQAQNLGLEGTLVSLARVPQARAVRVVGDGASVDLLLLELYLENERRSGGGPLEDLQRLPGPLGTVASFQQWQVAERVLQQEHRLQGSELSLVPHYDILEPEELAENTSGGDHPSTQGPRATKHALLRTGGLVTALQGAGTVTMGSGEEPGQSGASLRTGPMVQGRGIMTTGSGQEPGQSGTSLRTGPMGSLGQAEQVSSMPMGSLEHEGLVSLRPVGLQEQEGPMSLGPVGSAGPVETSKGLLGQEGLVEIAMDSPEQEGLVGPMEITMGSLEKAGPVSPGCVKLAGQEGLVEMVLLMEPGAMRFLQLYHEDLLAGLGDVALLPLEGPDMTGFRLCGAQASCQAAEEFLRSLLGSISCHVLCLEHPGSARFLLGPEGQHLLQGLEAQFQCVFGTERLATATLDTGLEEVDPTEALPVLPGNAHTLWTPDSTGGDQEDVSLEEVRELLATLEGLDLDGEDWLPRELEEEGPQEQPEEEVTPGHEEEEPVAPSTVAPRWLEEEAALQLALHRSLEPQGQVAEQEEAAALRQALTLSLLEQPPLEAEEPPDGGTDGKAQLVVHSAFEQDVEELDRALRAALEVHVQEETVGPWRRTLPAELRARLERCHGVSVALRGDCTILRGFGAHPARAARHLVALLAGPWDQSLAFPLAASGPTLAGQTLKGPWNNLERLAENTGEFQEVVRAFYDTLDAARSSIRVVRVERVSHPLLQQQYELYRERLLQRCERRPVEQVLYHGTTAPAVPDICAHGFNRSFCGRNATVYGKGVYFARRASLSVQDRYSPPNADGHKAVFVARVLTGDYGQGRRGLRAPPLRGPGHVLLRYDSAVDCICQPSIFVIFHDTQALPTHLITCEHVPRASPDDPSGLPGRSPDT
measured.property: IC50 (nM)
Write the answer as a number in nM, unit excluded.

(Q) Fill blank: measured IC50 of the molecule `COc1ccc(NC(=O)c2ccc(NC(=O)N3CCN(C(=O)c4cc(Cc5n[nH]c(=O)c6ccccc56)ccc4F)CC3)cc2)cc1` is ____.
(A) 140

---

Experiment: Half-life in Sprague-Dawley rat at 10 mg/kg, po or 1 mg/kg, iv
Type: ADME, organism-based
Details: in vivo
measured.property: half-life (h)
Respond numerically; units are h and should not be typed.

(Q) Quick check: half-life of `COc1ccc(NC(=O)c2ccc(NC(=O)N3CCN(C(=O)c4cc(Cc5n[nH]c(=O)c6ccccc56)ccc4F)CC3)cc2)cc1` ?
(A) 1.73

---

Molecular target: Protein mono-ADP-ribosyltransferase PARP12 (Homo sapiens, UniProt Q9H0J9)
Sequence (Q9H0J9 whole entry): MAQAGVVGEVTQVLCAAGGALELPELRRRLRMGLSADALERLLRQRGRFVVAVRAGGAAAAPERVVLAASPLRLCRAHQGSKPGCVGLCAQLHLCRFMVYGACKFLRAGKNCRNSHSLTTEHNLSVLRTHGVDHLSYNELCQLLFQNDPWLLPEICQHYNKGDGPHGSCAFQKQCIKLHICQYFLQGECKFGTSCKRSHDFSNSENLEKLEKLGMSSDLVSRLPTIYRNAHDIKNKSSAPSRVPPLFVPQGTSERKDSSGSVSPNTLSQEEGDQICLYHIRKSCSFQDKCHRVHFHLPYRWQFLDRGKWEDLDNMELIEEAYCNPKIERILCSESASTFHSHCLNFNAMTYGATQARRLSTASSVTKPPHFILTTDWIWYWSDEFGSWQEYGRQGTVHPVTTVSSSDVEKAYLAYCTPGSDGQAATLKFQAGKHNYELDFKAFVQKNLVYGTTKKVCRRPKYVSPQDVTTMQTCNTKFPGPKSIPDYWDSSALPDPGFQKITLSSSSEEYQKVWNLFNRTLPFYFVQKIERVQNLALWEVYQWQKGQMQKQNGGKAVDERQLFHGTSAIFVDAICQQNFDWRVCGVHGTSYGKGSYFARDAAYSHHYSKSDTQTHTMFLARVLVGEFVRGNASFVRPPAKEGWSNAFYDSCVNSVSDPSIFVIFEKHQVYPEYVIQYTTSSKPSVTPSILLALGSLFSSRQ
measured.property: IC50 (nM)
Give your result in nM as a bare value.

(Q) Would you kindly share the measured IC50 for `COc1ccc(NC(=O)c2ccc(NC(=O)N3CCN(C(=O)c4cc(Cc5n[nH]c(=O)c6ccccc56)ccc4F)CC3)cc2)cc1` ?
(A) 371

---

Experiment: Cytotoxicity against mouse AML12 cells assessed as reduction in cell viability incubated for 7 days by MTT assay
Format: toxicity, cell-based
Settings: time 7 day
Strictly below 50 µM in CC50 at 168 h: Met. Otherwise: Not met.

The examples below pair each entry with its known result.
{"columns": ["smiles.str", "qualitative.label"],
 "data": [
  ["O=C(Nc1ccc(F)cc1)c1ccc(NC(=O)N2CCN(C(=O)c3cc(Cc4n[nH]c(=O)c5ccccc45)ccc3F)CC2)cc1", "Met"],
  ["O=C(c1cc(Cc2n[nH]c(=O)c3ccccc23)ccc1F)N1CCN(C(=O)C2CC2)CC1", "Met"],
  ["Cc1ccccc1NC(=O)c1ccc(NC(=O)N2CCN(C(=O)c3cc(Cc4n[nH]c(=O)c5ccccc45)ccc3F)CC2)cc1", "Not met"]
]}

(Q) Is CC50 at 168 h strictly under 50 µM for the entry `O=c1[nH]nc2c3c(cccc13)N=C(CN1Cc3ccccc3C1)N2` ?
(A) Met

(Q) Criterion: CC50 at 168 h strictly below 50 µM. Is it met by `COc1ccc(NC(=O)c2ccc(NC(=O)N3CCN(C(=O)c4cc(Cc5n[nH]c(=O)c6ccccc56)ccc4F)CC3)cc2)cc1` ?
(A) Not met

---

Target: Poly [ADP-ribose] polymerase tankyrase-2 (Homo sapiens, UniProt Q9H2K2)
Sequence (Q9H2K2 whole entry): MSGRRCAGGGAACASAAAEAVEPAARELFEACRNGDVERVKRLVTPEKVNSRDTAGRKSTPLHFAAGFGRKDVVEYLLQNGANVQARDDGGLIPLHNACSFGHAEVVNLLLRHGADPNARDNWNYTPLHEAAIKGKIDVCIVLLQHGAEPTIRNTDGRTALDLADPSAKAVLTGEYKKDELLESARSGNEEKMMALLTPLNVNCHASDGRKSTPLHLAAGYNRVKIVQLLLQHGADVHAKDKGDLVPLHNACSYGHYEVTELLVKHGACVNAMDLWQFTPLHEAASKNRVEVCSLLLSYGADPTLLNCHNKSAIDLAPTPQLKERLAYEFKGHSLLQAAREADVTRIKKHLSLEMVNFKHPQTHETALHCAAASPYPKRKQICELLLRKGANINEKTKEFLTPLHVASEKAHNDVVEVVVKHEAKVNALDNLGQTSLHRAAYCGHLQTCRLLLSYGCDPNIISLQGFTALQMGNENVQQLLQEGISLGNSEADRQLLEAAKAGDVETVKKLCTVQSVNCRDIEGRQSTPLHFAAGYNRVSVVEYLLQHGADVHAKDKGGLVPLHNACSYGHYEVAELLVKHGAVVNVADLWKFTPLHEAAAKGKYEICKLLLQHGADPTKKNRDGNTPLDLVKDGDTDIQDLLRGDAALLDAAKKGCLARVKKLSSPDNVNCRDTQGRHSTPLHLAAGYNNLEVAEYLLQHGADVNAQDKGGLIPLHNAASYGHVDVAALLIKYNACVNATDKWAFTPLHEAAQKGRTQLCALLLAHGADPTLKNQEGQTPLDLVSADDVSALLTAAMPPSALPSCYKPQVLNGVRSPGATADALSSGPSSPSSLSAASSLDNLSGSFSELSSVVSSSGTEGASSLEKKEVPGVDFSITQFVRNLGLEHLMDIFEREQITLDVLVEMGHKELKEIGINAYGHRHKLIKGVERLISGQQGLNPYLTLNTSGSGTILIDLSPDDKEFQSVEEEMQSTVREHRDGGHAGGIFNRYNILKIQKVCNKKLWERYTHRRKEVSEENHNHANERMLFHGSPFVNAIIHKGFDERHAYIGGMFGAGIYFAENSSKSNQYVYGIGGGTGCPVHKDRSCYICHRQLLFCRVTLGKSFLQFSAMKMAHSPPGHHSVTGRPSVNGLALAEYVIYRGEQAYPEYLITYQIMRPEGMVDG
Test: Inhibition of TNKS2 (unknown origin) using biotin-NAD+ as substrate incubated for 1 hr in the presence of deoxy-oligonucleotide by ELISA analysis relative to control
pIC50: −log10 of the molar value.
Short version: pIC50 at least 7 is label 1, less is label 0.

{"columns": ["smiles.str", "qualitative.label"],
 "data": [
  ["Cc1ccc(NC(=O)c2ccc(NC(=O)N3CCN(C(=O)c4cc(Cc5n[nH]c(=O)c6ccccc56)ccc4F)CC3)cc2)cc1", "label 1"],
  ["O=C(Nc1ccccc1F)c1ccc(NC(=O)N2CCN(C(=O)c3cc(Cc4n[nH]c(=O)c5ccccc45)ccc3F)CC2)cc1", "label 0"],
  ["O=C(Nc1ccc(F)cc1)c1ccc(NC(=O)N2CCN(C(=O)c3cc(Cc4n[nH]c(=O)c5ccccc45)ccc3F)CC2)cc1", "label 0"]
]}

API: the following record is the query input.
(Q) Hello, I need to know if `O=C(Nc1ccc(C(F)(F)F)cc1)c1ccc(NC(=O)N2CCN(C(=O)c3cc(Cc4n[nH]c(=O)c5ccccc45)ccc3F)CC2)cc1` has measured pIC50 not below 7. Thanks!
(A) label 0
